Reference source for all entries: patent US20240025908A1

- system: ALK (G1202R) (Homo sapiens (Human), UniProt Q9UM73, G1202R)
- Sequence (Q9UM73 19-1620 G1202R): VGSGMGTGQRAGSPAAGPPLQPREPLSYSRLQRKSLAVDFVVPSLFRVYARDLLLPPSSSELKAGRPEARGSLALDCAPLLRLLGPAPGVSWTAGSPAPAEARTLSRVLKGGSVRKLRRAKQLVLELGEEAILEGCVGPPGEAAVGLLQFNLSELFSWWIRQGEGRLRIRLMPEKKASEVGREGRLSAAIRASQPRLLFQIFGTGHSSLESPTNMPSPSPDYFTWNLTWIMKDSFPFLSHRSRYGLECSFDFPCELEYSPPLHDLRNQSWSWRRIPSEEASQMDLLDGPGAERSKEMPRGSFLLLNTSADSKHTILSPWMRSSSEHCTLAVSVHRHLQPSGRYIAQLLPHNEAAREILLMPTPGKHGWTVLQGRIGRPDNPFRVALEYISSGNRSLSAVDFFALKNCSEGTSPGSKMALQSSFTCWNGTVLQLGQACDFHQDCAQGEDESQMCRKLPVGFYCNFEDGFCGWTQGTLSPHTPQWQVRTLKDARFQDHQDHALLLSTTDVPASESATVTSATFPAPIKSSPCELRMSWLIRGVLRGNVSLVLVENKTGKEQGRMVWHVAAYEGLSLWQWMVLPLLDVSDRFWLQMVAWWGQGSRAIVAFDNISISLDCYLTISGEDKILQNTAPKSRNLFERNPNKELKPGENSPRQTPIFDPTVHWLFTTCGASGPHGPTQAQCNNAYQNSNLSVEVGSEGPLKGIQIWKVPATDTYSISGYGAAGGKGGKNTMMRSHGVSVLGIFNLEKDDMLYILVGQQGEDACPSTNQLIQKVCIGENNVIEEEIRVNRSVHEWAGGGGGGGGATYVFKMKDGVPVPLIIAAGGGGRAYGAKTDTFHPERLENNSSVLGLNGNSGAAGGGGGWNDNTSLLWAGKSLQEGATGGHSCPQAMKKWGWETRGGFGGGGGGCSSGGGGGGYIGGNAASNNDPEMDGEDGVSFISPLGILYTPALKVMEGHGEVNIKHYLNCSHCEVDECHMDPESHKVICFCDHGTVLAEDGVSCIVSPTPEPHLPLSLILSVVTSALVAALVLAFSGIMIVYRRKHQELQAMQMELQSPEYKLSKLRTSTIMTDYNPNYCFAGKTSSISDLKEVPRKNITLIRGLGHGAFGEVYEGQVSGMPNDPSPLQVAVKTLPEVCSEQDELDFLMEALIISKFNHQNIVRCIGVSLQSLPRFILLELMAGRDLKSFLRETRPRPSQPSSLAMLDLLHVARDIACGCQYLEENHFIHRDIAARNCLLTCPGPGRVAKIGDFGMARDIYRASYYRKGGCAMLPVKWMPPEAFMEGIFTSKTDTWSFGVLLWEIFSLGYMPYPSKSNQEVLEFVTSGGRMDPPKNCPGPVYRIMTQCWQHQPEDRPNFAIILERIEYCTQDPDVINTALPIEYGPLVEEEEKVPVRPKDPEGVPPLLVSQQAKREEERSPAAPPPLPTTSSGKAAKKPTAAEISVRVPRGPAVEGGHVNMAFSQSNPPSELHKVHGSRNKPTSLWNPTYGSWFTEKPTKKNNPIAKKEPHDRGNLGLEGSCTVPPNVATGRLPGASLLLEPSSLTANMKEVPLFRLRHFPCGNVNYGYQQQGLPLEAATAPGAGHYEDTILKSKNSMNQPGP
- assay-overview: Radio-tagged HotSpot kinase assay, ALK (G1202R)
- Type: biochemical
property-name: IC50

# example entries with known answers
>>> experimental_result("C[C@@H](Nc1ccn2ncc(NC3=NC(C)(C)CO3)c2n1)c1cc(F)cc(F)c1F")
"5 to 50 nM"
>>> experimental_result("C[C@@H](Nc1ccn2ncc(C3=NOCCN3)c2n1)c1cc(F)ccc1C(F)F")
"50 to 500 nM"
>>> experimental_result("C[C@@H](Nc1ccn2ncc(C3=NOCCN3)c2n1)c1cc(F)ccc1C(F)(F)F")
"50 to 500 nM"
>>> experimental_result("C[C@@H](Nc1ccn2ncc(NC3=NCC(C)(C)N3)c2n1)c1cc(F)cc(F)c1F")
"50 to 500 nM"

Lab note: measured IC50 of "COc1c(F)cc(F)cc1[C@@H](C)Nc1ccn2ncc(C3=NC(=O)C(C)(C)N3)c2n1" was 5 to 50 nM
